- study.system: ROCKII (1-543) (Homo sapiens (Human), UniProt O75116)
- assay: IMAP Assay (fluorescence polarization, FAM S6 peptide)
- Assay type: biochemical
- experimental.context: 100 μM ATP, 200 nM FAM S6 peptide, 1 nM kinase; read-out: Assay 2 IC50
- Sequence (O75116 1-543, species assumed): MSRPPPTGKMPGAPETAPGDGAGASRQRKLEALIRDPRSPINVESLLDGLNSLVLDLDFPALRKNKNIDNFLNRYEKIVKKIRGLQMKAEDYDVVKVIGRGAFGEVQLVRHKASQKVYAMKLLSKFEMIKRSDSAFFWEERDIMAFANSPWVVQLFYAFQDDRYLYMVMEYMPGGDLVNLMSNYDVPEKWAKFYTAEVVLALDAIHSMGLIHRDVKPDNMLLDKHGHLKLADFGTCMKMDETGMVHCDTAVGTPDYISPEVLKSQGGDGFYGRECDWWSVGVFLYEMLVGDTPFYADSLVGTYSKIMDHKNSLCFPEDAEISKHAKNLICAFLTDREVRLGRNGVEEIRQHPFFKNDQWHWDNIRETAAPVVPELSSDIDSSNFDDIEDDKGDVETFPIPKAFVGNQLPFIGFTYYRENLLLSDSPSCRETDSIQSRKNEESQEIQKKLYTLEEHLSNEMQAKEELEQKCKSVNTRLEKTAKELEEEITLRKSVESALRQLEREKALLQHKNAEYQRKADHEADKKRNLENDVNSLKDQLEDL
pIC50: −log10 of the molar value.
Would you please tag the item Fulfilled when its pIC50 is 8 or above, and Not fulfilled when it is below?

compound: CN(C)[C@H]1CCc2nc(NC(=O)c3cccc([C@H]4CCCN4C(=O)c4cn5cc(C(N)=O)ccc5n4)c3)sc2C1
cat: Fulfilled

Q: Could you verify whether the entry "COc1ccc(C(=O)N[C@H](C)c2cccc(C(=O)Nc3nc4c(s3)CN(C)CC4)c2)cc1OC" shows pIC50 of no less than 8?
Ans: Fulfilled

Q: Reported pIC50 reaches at least 8 for "N#Cc1ccn2cc(C(=O)N3CCC[C@@H]3c3cccc(C(=O)Nc4nc5c(s4)C[C@@H](N4CCOCC4)CC5)c3)nc2c1" ?
Ans: Fulfilled

====

Item-by-item account of pIC50
- study.system: ROCKII (1-543) (Homo sapiens (Human), UniProt O75116)
- assay: Luciferin-Luciferase Assay (PKLight ATP detection)
- Type: biochemical
- experimental.context: 750 nM ATP, 500 nM peptide, 7.5 nM kinase
- Sequence (O75116 1-543): as the sequence (O75116 1-543, species assumed) above
Kindly note that pIC50 refers to -log10 of the concentration in mol/L and answer with the value alone.

smiles.structure: COc1ccc(C(=O)N[C@@H](c2cccc(C(=O)Nc3nc4c(s3)CN(C)CC4)c2)C2CC2)cc1Cl
pIC50: 8.55

smiles.structure: COc1ccc(C(=O)N2CCC[C@@H]2c2cccc(C(=O)Nc3nc4c(s3)C[C@@H](N3CCOCC3)CC4)c2)cc1OC
pIC50: 8.44

Now let's try a different one.
Q: Report pIC50 for "COc1ccc(C(=O)N2CCC[C@@H]2c2cccc(C(=O)Nc3nc4c(s3)C[C@@H](N3CCOCC3)CC4)c2)cc1C" please.
Ans: 8.11

====

pIC50 values by entry
- study.system: ROCKII (1-543) (Homo sapiens (Human))
- assay: Luciferin-Luciferase Assay (PKLight ATP detection)
- Type: biochemical
- experimental.context: 750 nM ATP, 500 nM peptide, 7.5 nM kinase
Units for pIC50: none; it is -log10 of a concentration expressed in mol/L.

Illustrative cases are given below, each with its answer.
molecule: CN1CCc2nc(NC(=O)c3cccc(C4CCCN4C(=O)Nc4cccc(C#N)c4)c3)sc2C1 (stereo not shown)
pIC50: 8.06

molecule: C[C@H](NC(=O)Nc1ccc(C#N)cc1)c1cccc(C(=O)Nc2nc3c(s2)CN(C)CC3)c1
pIC50: 7.42

molecule: C[C@@H](NC(=O)Nc1cccc(C#N)c1)c1cccc(C(=O)Nc2nc3c(s2)CN(C)CC3)c1
pIC50: 8.26

Q: So what's the measured pIC50 for this one? "CCCN[C@H]1CCc2nc(NC(=O)c3cccc([C@H]4CCCN4C(=O)Nc4cccc(C#N)c4)c3)sc2C1"
Ans: 8.80

Q: Form field: reported pIC50 of "O=C(Nc1nc2c(s1)C[C@@H](N1CCOCC1)CC2)c1cccc([C@H]2CCCN2C(=O)c2csc(-c3cccnc3)n2)c1"
Ans: 8.59

Q: Entry N#Cc1cccc(NC(=O)N2CCCC2c2cccc(C(=O)Nc3nc4c(s3)CN(Cc3ccccc3)CC4)c2)c1 (stereo not shown) : reported pIC50 = ?
Ans: 7.68

Q: State the recorded pIC50 for this entry: "CCCC[C@@H](NC(=O)c1ccc(OC)c(OC)c1)c1cccc(C(=O)Nc2nc3c(s2)CN(C)CC3)c1"
Ans: 8.21

====

- study.system: ROCKII (1-543) (Homo sapiens (Human))
- assay: Luciferin-Luciferase Assay (PKLight ATP detection)
- Format: biochemical
- experimental.context: 750 nM ATP, 500 nM peptide, 7.5 nM kinase
Recorded pIC50 values for a group of compounds are listed next.
Quick note: pIC50 means taking -log10 of the concentration in moles per liter.

Check out these entries, answers already filled in.
compound: CCCN[C@H]1CCc2nc(NC(=O)c3cccc([C@@H](C)NC(=O)c4ccc(OC)c(OC)c4)c3)sc2C1
pIC50: 9.00

compound: O=C(Nc1nc2c(s1)C[C@@H](N1CCOCC1)CC2)c1cccc([C@H]2CCCN2C(=O)c2ccc(-c3cnco3)cc2)c1
pIC50: 8.60

compound: O=C(Nc1nc2c(s1)C[C@@H](N1CCOCC1)CC2)c1cccc([C@H]2CCCN2C(=O)c2ccc(-n3ccnc3)cc2)c1
pIC50: 8.46

compound: CN1CCc2nc(NC(=O)c3cccc(C4CCCCN4C(=O)Nc4ccc(C#N)cc4)c3)sc2C1 (stereo not shown)
pIC50: 7.73

compound: CN1CCc2nc(NC(=O)c3cccc([C@H]4CCCN4C(=O)c4cccc(-c5cn[nH]c5)c4)c3)sc2C1
pIC50: 8.72

Q: # get_value(readout='pIC50', item= "CN(C)[C@H]1CCc2nc(NC(=O)c3cccc(OCC(=O)Nc4ccc(C#N)cc4)c3)sc2C1" )
Ans: 8.77

Q: Quick one: pIC50 for "Cc1nc(-c2ccncc2)sc1C(=O)N1CCC[C@@H]1c1cccc(C(=O)Nc2nc3c(s2)C[C@@H](N(C)C)CC3)c1" ?
Ans: 8.55

====

- study.system: ROCKII (1-543) (Homo sapiens (Human))
- assay: Luciferin-Luciferase Assay (PKLight ATP detection)
- Assay type: biochemical
- experimental.context: 750 nM ATP, 500 nM peptide, 7.5 nM kinase
# Lookup of reported pIC50 keyed by entry
// pIC50 is dimensionless: -log10 of concentration (M)

smiles.structure: COc1ccc(C(=O)N[C@H](C)c2cccc(C(=O)Nc3nc4c(s3)CN(C)CC4)c2)cc1C
study.system: ROCKII (1-543) (Homo sapiens (Human))
pIC50: 8.05

smiles.structure: N#Cc1cccc(NC(=O)N2CCC[C@@H]2c2cccc(C(=O)Nc3ccc(CCN4CCCC4)cc3)c2)c1
study.system: ROCKII (1-543) (Homo sapiens (Human))
pIC50: 8.22

smiles.structure: Cc1nc(-c2ccncc2)sc1C(=O)N1CCC[C@@H]1c1cccc(C(=O)Nc2nc3c(s2)CN(C)CC3)c1
study.system: ROCKII (1-543) (Homo sapiens (Human))
pIC50: 7.90

Q: Hello, I am looking for reported pIC50 with ROCKII (1-543) (Homo sapiens (Human)) for "COc1ccc(C(=O)N[C@H](C)c2cccc(C(=O)Nc3ccc4c(c3)CN(C)CC4)c2)cc1OC" . Could you help?
Ans: 8.05

====

- study.system: ROCKII (1-543) (Homo sapiens (Human), UniProt O75116)
- assay: IMAP Assay (fluorescence polarization, FAM S6 peptide)
- Type: biochemical
- experimental.context: 100 μM ATP, 200 nM FAM S6 peptide, 1 nM kinase; read-out: Assay 2 IC50
- Protocol: This assay is performed using FAM S6 substrate peptide (Catalogue #R7184) and IMAP FP Screening Express Kit detection reagents from Molecular Devices (Sunnyvale, Calif.) in IMAP kinase reaction buffer (Tris-HCl, pH 7.2, 10 mM MgCl2, 0.05% NaN3, 0.1% phosphate-free BSA) containing 1 mM DTT. Test compounds dissolved in neat DMSO at 0.3 mg/mL are serially diluted 1 to 3 for concentration response in 100% DMSO. […]
# note: exactly 10 nM is not below, so it is Not met; use Met for IC50 strictly under it

Reference set, count: 3
compound: COc1ccc(C(=O)N2CCC[C@@H]2c2cccc(C(=O)Nc3nc4c(s3)C[C@@H](N3CCOCC3)CC4)c2)cc1C [Compound 116]
cat: Met
//
compound: COc1ccc(C(=O)N[C@H](C)c2cccc(C(=O)Nc3nc4c(s3)CN(C)CC4)c2)cc1Cl [Compound 89]
cat: Not met
//
compound: CN(C)[C@H]1CCc2nc(NC(=O)c3cccc([C@H]4CCCN4C(=O)c4csc(-c5cccnc5)n4)c3)sc2C1 [Compound 92]
cat: Met

Q: I'd appreciate it if you could check whether O=C(Nc1nc2c(s1)C[C@@H](N1CCOCC1)CC2)c1cccc([C@H]2CCCN2C(=O)c2csc(-c3cccnc3)n2)c1 [Compound 136] has IC50 smaller than 10 nM.
Ans: Met

Q: Determine whether this compound shows IC50 lower than 10 nM (ties excluded): CN1CCc2nc(NC(=O)c3cccc([C@H]4CCCN4C(=O)c4cn5ccc(C#N)cc5n4)c3)sc2C1 [Compound 148]
Ans: Not met

Q: Report whether reported IC50 is lower than 10 nM (strictly) for CN(C)[C@H]1CCc2nc(NC(=O)c3cccc([C@H]4CCCN4C(=O)c4cc(-c5ccncc5)[nH]n4)c3)sc2C1 [Compound 96]
Ans: Met

Q: Please check: IC50 for CCCC[C@@H](NC(=O)c1ccc(OC)c(OC)c1)c1cccc(C(=O)Nc2nc3c(s2)CN(C)CC3)c1 [Compound 98] , strictly under 10 nM or not?
Ans: Not met

Q: Answer whether the compound O=C(Nc1nc2c(s1)C[C@@H](N1CCOCC1)CC2)c1cccc([C@H]2CCCN2C(=O)c2ccc(-c3ccncc3)cc2)c1 [Compound 132] has IC50 strictly less than 10 nM
Ans: Not met

Q: Please indicate whether the reported IC50 of O=C(Nc1nc2c(s1)C[C@@H](N1CCOCC1)CC2)c1cccc([C@H]2CCCN2C(=O)c2ccc(-n3ccnc3)cc2)c1 [Compound 122] is strictly below 10 nM.
Ans: Met
